Target: human FAAH (Homo sapiens, UniProt O00519)
Construct: host or cells: COS-7 cells, transient transfection; 13,000 g membrane fraction solubilised in 1% Triton X-100
Sequence (O00519 1-579): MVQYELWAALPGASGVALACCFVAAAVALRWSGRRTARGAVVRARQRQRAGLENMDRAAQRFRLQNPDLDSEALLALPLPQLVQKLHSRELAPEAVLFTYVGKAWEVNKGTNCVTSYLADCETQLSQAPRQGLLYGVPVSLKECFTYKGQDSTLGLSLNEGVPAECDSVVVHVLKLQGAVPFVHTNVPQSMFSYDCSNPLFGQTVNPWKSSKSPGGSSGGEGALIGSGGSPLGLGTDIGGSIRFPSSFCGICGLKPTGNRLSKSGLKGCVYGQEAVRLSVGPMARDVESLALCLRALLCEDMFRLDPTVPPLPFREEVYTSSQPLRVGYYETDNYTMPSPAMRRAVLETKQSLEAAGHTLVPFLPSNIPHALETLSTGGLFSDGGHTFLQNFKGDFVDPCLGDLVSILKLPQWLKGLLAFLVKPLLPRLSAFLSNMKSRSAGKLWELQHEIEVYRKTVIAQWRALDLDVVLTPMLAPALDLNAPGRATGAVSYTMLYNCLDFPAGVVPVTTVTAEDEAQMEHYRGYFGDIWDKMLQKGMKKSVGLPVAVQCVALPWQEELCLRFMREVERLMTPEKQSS
Assay: Inhibition of human FAAH (fluorescence assay, AMC arachidonoyl amide substrate)
Format: biochemical
Details: solubilized human FAAH from transfected COS-7 cells; 30 min preincubation; 20 μM AMC-arachidonoyl amide; 4 h at room temperature
pKi: −log10 of the molar value.
ATTRIBUTE MEASURED: pKi

Field: example entries. Status: answers known.
ClC1=NOC2(CCN(Cc3ccc(Cl)cc3)CC2)C1 [III-48]    ≥ 7.00
O=C(O)c1ccc(OC2=NO[C@@]3(CCc4cc(OC(F)(F)F)ccc43)C2)cn1 [III-74b]    ≥ 7.00
O=C(CCc1ccccc1)N1CCC2(CC1)CC(Br)=NO2 [III-34]    ≥ 7.00
BrC1=NOC2(CCN(CC3CCCCC3)CC2)C1 [III-32]    ≥ 7.00

Consider the record given below.
get_value(item= BrC1=NO[C@@]2(CCCc3cc(Oc4ccccc4)ccc32)C1 [III-62b] , readout=pKi) returns ≥ 7.00

###

Target: human FAAH (Homo sapiens, UniProt O00519)
Sequence (O00519 1-579): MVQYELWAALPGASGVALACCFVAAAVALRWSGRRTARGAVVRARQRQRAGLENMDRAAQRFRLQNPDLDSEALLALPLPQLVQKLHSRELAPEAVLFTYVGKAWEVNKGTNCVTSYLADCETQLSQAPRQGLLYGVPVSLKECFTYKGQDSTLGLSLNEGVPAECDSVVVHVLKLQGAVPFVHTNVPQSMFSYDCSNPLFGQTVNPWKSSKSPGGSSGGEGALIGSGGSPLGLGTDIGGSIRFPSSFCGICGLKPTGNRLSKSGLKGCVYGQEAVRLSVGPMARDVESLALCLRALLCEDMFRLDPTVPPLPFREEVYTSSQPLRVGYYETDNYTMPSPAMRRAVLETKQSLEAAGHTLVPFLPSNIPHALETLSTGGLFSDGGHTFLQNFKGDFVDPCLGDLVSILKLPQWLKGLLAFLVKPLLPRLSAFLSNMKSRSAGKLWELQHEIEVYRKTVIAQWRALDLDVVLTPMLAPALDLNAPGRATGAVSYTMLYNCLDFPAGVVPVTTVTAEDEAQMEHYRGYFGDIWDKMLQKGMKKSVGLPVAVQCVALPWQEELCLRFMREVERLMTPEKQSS
ATTRIBUTE MEASURED: Ki

Field: example entries. Status: answers known.
FC(F)(F)Oc1ccc2c(c1)CC[C@]21CC(Br)=NO1 [III-66b]    ≤ 0.1 µM
Clc1cccc(CN2CCC3(CC2)CC(Br)=NO3)c1    ≤ 0.1 µM
O=C(OCc1ccc(Cl)cc1)N1CCC2(CC1)CC(Br)=NO2    ≤ 0.1 µM
Clc1ccc(CN2CC3ON=C(Br)C3C2)cc1 (centres unmarked)    ≥ 1 µM
BrC1=NO[C@@]2(CCc3cc(Oc4ccccc4)ccc32)C1 [III-63b]    ≤ 0.1 µM

Consider the record given below.
get_value(item= O=S(=O)(c1ccccc1)N1CCC2(CC1)CC(Br)=NO2 , readout=Ki) returns 0.1 to 1 µM
